target: TNFα / TNFα receptor (TNFα R1/Fc) (Homo sapiens); construct: purchased R&D Systems; assay: Inhibition of binding of TNFα to the TNFα receptor (plate ELISA competition); settings: Table 2; read-out: Activity (IC50, inhibition of TNFα binding to TNFα R1/Fc)
Sequence (P01375 77-233 limits assumed, species assumed): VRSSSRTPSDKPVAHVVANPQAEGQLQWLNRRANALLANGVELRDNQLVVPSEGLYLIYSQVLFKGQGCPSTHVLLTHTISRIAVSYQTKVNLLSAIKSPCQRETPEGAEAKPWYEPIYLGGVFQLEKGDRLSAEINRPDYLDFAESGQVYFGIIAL
Numbered stars: 1 amine (or outer) side, 2 acyl side, 3 side chain; on linkers, the order of the positions; unused ones are H or OH. Bridge positions count the residues as written; N and C are the ends. Square brackets hold non-standard residues; d marks the D form. Peptide text beside a SMILES is read from it. Tartaroyl(2R,3R-(OAc)2) = CC(=O)O[C@@H](C(=O)[*:1])[C@@H](OC(C)=O)C(=O)[*:2]; Phe(2,4-Cl2) = N[C@@H](Cc1ccc(Cl)cc1Cl)C(=O)O; Bip = N[C@@H](Cc1ccc(-c2ccccc2)cc1)C(=O)O; dPhe(4-NH2) = Nc1ccc(C[C@@H](N)C(=O)O)cc1; Phe(4-NH2) = Nc1ccc(C[C@H](N)C(=O)O)cc1; d2Thi = N[C@H](Cc1cccs1)C(=O)O; Suc = O=C(CCC(=O)[*:2])[*:1]
Listed here: items and their measured IC50.

O=C(O)CCCCCNC(=O)[C@@H]1Cc2ccc(cc2)OCC(=O)N[C@H](Cc2cccs2)C(=O)N[C@@H](Cc2ccc(-c3ccccc3)cc2)C(=O)N[C@H](CCc2ccccc2)C(=O)N1 : < 10 µM
O=C1N[C@H](CCc2ccccc2)C(=O)N[C@@H](C(=O)O)Cc2ccc(cc2)NC(=O)[C@H](O)[C@@H](O)C(=O)N[C@H](Cc2cccs2)C(=O)N[C@H]1Cc1ccc(Cl)cc1Cl : 10 to 30 µM
C[C@H]1NC(=O)[C@H](Cc2ccc(-c3ccccc3)cc2)NC(=O)[C@@H](Cc2cccs2)NC(=O)CCC(=O)Nc2ccc(cc2)C[C@@H](C(=O)O)NC1=O [Compound 44] ([d2Thi][Bip][dA][Phe(4-NH2)]-OH; linker N-4 via Suc) : > 100 µM
CC(=O)O[C@H]1C(=O)Nc2ccc(cc2)C[C@H](C(=O)O)NC(=O)[C@@H](Cc2ccccc2)NC(=O)[C@H](Cc2ccc(Cl)cc2Cl)NC(=O)[C@@H](Cc2ccccc2)NC(=O)[C@@H]1OC(C)=O [Compound 233] ([dF][Phe(2,4-Cl2)][dF][dPhe(4-NH2)]-OH; linker N-4 via Tartaroyl(2R,3R-(OAc)2)) : 30 to 100 µM

For the molecule O=C1COc2ccc(cc2)C[C@@H](C(=O)O)NC(=O)[C@H](CCc2ccccc2)NC(=O)[C@@H](Cc2ccc(-c3ccccc3)cc2)NC(=O)[C@H](Cc2ccncc2)N1 , what IC50 is on record?
< 10 µM

---

test system: TNF-α (degradation of IkB in HeLa cells or A431 cells); experiment: Human cell-based assay: inhibition of TNF-α induced degradation of IkB; conditions: 10 μM compound, HeLa or A431 cells, read-out: Inhibition at Various Compound Concentrations, 10 μM
Numbered stars: 1 amine (or outer) side, 2 acyl side, 3 side chain; on linkers, the order of the positions; unused ones are H or OH. Bridge positions count the residues as written; N and C are the ends. Square brackets hold non-standard residues; d marks the D form. Peptide text beside a SMILES is read from it. Phe(4-CF3) = N[C@@H](Cc1ccc(C(F)(F)F)cc1)C(=O)O; dPhe(4-CF3) = N[C@H](Cc1ccc(C(F)(F)F)cc1)C(=O)O; Bip = N[C@@H](Cc1ccc(-c2ccccc2)cc1)C(=O)O; dPhe(4-NH2) = Nc1ccc(C[C@@H](N)C(=O)O)cc1; Phe(4-NH2) = Nc1ccc(C[C@H](N)C(=O)O)cc1; d(hPhe) = N[C@H](CCc1ccccc1)C(=O)O; d2Thi = N[C@H](Cc1cccs1)C(=O)O; Suc = O=C(CCC(=O)[*:2])[*:1]; Nphe = O=C(O)CNCc1ccccc1
The compounds listed here are annotated with their inhibition at 10 µM.

Check out these entries, answers already filled in.
O=C1CCC(=O)N[C@H](Cc2ccc(C(F)(F)F)cc2)C(=O)N[C@@H](Cc2ccc(-c3ccccc3)cc2)C(=O)N[C@H](Cc2ccccc2)C(=O)N[C@H](C(=O)O)Cc2ccc(cc2)N1 [Compound 118] ([dPhe(4-CF3)][Bip][dF][Phe(4-NH2)]-OH; linker N-4 via Suc) : 10 to 50%
O=C1CCC(=O)N[C@H](CCc2ccccc2)C(=O)N[C@@H](Cc2ccc(C(F)(F)F)cc2)C(=O)N[C@H](Cc2ccccc2)C(=O)N[C@H](C(=O)N[C@@H](Cc2ccccc2)C(=O)O)Cc2ccc(cc2)N1 [Compound 11] ([d(hPhe)][Phe(4-CF3)][dF][Phe(4-NH2)]F-OH; linker N-4 via Suc) : 50 to 80%
CC(C)(NC(=O)[C@@H]1Cc2ccc(cc2)OCC(=O)N[C@H](Cc2cccs2)C(=O)N[C@@H](Cc2ccc(-c3ccccc3)cc2)C(=O)N[C@H](CCc2ccccc2)C(=O)N1)C(=O)O : < 10%
O=C1N[C@H](CCc2ccccc2)C(=O)N[C@@H](C(=O)O)Cc2ccc(cc2)NC(=O)[C@H](O)[C@@H](O)C(=O)N[C@H](Cc2ccccc2)C(=O)N[C@H]1Cc1ccc(Cl)cc1Cl : < 10%
O=C1CCC(=O)N[C@H](CCc2ccccc2)C(=O)N[C@@H](Cc2ccc(C(F)(F)F)cc2)C(=O)N[C@H](Cc2ccccc2)C(=O)N[C@@H](C(=O)N[C@@H](Cc2ccccc2)C(=O)O)Cc2ccc(cc2)N1 [Compound 12] ([d(hPhe)][Phe(4-CF3)][dF][dPhe(4-NH2)]F-OH; linker N-4 via Suc) : 10 to 50%
O=C(O)CCCNC(=O)[C@@H]1Cc2ccc(cc2)OCC(=O)N[C@H](Cc2cccs2)C(=O)N[C@@H](Cc2ccc(-c3ccccc3)cc2)C(=O)N[C@H](CCc2ccccc2)C(=O)N1 : < 10%
CC(=O)NCCCC[C@@H]1NC(=O)[C@@H](Cc2ccc(-c3ccccc3)cc2)NC(=O)[C@H](Cc2cccs2)NC(=O)COc2ccc(cc2)C[C@@H](C(=O)O)NC1=O : < 10%

Could you tell me which inhibition at 10 µM is on file for O=C(O)CN(Cc1ccccc1)C(=O)[C@@H]1Cc2ccc(cc2)NC(=O)CCC(=O)N[C@H](Cc2cccs2)C(=O)N[C@@H](Cc2ccc(-c3ccccc3)cc2)C(=O)N[C@H](Cc2ccccc2)C(=O)N1 [Compound 36] ([d2Thi][Bip][dF][Phe(4-NH2)][Nphe]-OH; linker N-4 via Suc) ?
50 to 80%
